Origin of the recorded values: the supplement of paper PMC10307832

test system: NCI-H1792; assay: relative viability (nuclei count vs DMSO), 5 days (fraction); higher = more cells survive; conditions: first compound 4 µM
measured.property: relative viability

Ask: What value of relative viability has been recorded for this entry: Cc1sc2c(c1C)C(c1ccc(Cl)cc1)=N[C@@H](CC(=O)OC(C)(C)C)c1nnc(C)n1-2 [JQ1] + COc1cccc2cc(-c3nc([C@H]4CC[C@H](C(=O)O)CC4)n4ncnc(N)c34)[nH]c12 [OSI-027] (partner 0.5 µM)
Result: 0.57

Ask: What value of relative viability has been recorded for this entry: Cc1sc2c(c1C)C(c1ccc(Cl)cc1)=N[C@@H](CC(=O)OC(C)(C)C)c1nnc(C)n1-2 [JQ1] + CCNC(=O)c1noc(-c2cc(C(C)C)c(O)cc2O)c1-c1ccc(CN2CCOCC2)cc1 [Luminespib] (partner 0.01 µM)
Result: 0.314

Ask: What value of relative viability has been recorded for this entry: Cc1sc2c(c1C)C(c1ccc(Cl)cc1)=N[C@@H](CC(=O)OC(C)(C)C)c1nnc(C)n1-2 [JQ1] + NC(=O)Nc1cc(-c2cccc(F)c2)sc1C(=O)N[C@H]1CCCNC1 [AZD7762] (partner 0.2 µM)
Result: 0.0872

Ask: What value of relative viability has been recorded for this entry: Cc1sc2c(c1C)C(c1ccc(Cl)cc1)=N[C@@H](CC(=O)OC(C)(C)C)c1nnc(C)n1-2 [JQ1] + Cc1nc(NC(=O)N2CCC[C@H]2C(N)=O)sc1-c1ccnc(C(C)(C)C(F)(F)F)c1 [Alpelisib] (partner 2 µM)
Result: 0.364

###

test system: SK-MES-1; assay: relative viability (nuclei count vs DMSO), 5 days (fraction); higher = more cells survive; details: first compound 0.1581 µM
measured.property: relative viability
Enter the number alone.

Ask: What value of relative viability has been recorded for this entry: Nc1ccn([C@@H]2O[C@H](CO)[C@@H](O)[C@@H]2O)c(=O)n1 [Cytarabine] + CS(=O)(=O)CCNCc1ccc(-c2ccc3ncnc(Nc4ccc(OCc5cccc(F)c5)c(Cl)c4)c3c2)o1 [Lapatinib] (partner 2 µM)
Result: 0.228

Ask: What value of relative viability has been recorded for this entry: COc1cc2nccc(Oc3ccc(NC(=O)Nc4cc(C)on4)c(Cl)c3)c2cc1OC [Tivozanib] + C[C@]1(O)C[C@@H](c2nc(-c3ccc4ccc(-c5ccccc5)nc4c3)c3c(N)nccn32)C1 [Linsitinib] (partner 1 µM)
Result: 1.14

Ask: What value of relative viability has been recorded for this entry: COc1cc2nccc(Oc3ccc(NC(=O)Nc4cc(C)on4)c(Cl)c3)c2cc1OC [Tivozanib] + N=C(N)NC(=N)NCCc1ccccc1 [Phenformin] (partner 250 µM)
Result: 0.688

Ask: What value of relative viability has been recorded for this entry: Nc1ccn([C@@H]2O[C@H](CO)[C@@H](O)[C@@H]2O)c(=O)n1 [Cytarabine] + Nc1nc2[nH]cc(CCc3ccc(C(=O)N[C@@H](CCC(=O)O)C(=O)O)cc3)c2c(=O)[nH]1 [Pemetrexed] (partner 0.2 µM)
Result: 0.233

###

tested on: HCC-827; assay: relative viability (nuclei count vs DMSO), 5 days (fraction); higher = more cells survive; conditions: first compound 0.8 µM
measured.property: relative viability
Enter the number alone.

Ask: What value of relative viability has been recorded for this entry: Cc1cnc(-c2cnc(NCCNc3ccc(C#N)cn3)nc2-c2ccc(Cl)cc2Cl)[nH]1 + N=C(N)NC(=N)NCCc1ccccc1 [Phenformin] (partner 250 µM)
Result: 0.362

Ask: What value of relative viability has been recorded for this entry: O=c1[nH]c2ccccc2n1C1CCN(CCCC(c2ccc(F)cc2)c2ccc(F)cc2)CC1 [Pimozide] + COc1cccc2cc(-c3nc([C@H]4CC[C@H](C(=O)O)CC4)n4ncnc(N)c34)[nH]c12 [OSI-027] (partner 0.5 µM)
Result: 0.738

Ask: What value of relative viability has been recorded for this entry: O=c1[nH]c2ccccc2n1C1CCN(CCCC(c2ccc(F)cc2)c2ccc(F)cc2)CC1 [Pimozide] + CCNC(=O)c1noc(-c2cc(C(C)C)c(O)cc2O)c1-c1ccc(CN2CCOCC2)cc1 [Luminespib] (partner 0.01 µM)
Result: 0.413

Ask: What value of relative viability has been recorded for this entry: O=c1[nH]c2ccccc2n1C1CCN(CCCC(c2ccc(F)cc2)c2ccc(F)cc2)CC1 [Pimozide] + N=C(N)NC(=N)NCCc1ccccc1 [Phenformin] (partner 250 µM)
Result: 0.464

Ask: What value of relative viability has been recorded for this entry: Cc1cnc(-c2cnc(NCCNc3ccc(C#N)cn3)nc2-c2ccc(Cl)cc2Cl)[nH]1 + CC(C)C[C@H](NC(=O)[C@H](Cc1ccccc1)NC(=O)c1cnccn1)B(O)O [Bortezomib] (partner 0.002 µM)
Result: 0.877

Ask: What value of relative viability has been recorded for this entry: O=c1[nH]c2ccccc2n1C1CCN(CCCC(c2ccc(F)cc2)c2ccc(F)cc2)CC1 [Pimozide] + Nc1ncn([C@H]2C[C@H](O)[C@@H](CO)O2)c(=O)n1 [Decitabine] (partner 2 µM)
Result: 0.348
